Measured On: Voltage-gated inwardly rectifying potassium channel KCNH2 (Homo sapiens, UniProt Q12809)
Sequence (Q12809 whole entry): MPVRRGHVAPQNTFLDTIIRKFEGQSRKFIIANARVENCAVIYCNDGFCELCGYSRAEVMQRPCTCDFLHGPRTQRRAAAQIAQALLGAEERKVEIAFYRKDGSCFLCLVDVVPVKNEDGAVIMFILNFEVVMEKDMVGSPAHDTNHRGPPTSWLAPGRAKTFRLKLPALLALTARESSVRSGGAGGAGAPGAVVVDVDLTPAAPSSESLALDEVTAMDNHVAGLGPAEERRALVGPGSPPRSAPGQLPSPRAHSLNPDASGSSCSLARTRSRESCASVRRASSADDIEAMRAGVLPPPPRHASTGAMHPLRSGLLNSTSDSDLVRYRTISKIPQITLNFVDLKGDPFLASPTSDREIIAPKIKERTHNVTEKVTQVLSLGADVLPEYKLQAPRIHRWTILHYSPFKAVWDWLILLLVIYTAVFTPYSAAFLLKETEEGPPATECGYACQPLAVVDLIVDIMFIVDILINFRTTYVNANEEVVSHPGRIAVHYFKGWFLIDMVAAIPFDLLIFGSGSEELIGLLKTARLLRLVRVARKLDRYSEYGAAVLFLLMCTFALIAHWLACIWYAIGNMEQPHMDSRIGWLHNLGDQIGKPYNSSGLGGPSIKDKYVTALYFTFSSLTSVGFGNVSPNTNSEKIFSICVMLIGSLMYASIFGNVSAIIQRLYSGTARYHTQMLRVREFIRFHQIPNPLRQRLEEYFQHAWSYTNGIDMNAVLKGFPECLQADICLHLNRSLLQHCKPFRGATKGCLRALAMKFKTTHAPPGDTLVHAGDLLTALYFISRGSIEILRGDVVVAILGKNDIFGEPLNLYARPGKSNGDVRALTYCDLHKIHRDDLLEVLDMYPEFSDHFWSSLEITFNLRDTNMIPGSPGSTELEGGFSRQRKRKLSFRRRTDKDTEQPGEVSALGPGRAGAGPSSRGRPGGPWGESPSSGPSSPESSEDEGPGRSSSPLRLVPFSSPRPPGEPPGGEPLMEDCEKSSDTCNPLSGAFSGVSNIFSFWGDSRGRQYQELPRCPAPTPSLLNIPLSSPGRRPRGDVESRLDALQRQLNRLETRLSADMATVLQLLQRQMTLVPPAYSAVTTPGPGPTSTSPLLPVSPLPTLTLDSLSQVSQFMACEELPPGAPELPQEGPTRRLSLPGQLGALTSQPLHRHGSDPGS
Assay Name: Inhibition of human ERG expressed in CHO cells by patch clamp electrophysiology assay
Assay type: cell-based
The following molecules are shown together with reported IC50 values.
Parameter Measured: IC50 (µM)

# Molecule, Measured On, Measured
data = [
    ("NCC(NC(=O)c1ccc(-c2cc(F)c(Cl)c(F)c2)[nH]1)c1ncc(CO)s1 (stereo in doubt)", "Voltage-gated inwardly rectifying potassium channel KCNH2 (Homo sapiens, UniProt Q12809)", 14.1),
    ("Cc1nc(C(NC(=O)c2ccc(-c3ccc(Cl)cc3)[nH]2)C2CCCCN2)sc1CO (stereo not drawn)", "Voltage-gated inwardly rectifying potassium channel KCNH2 (Homo sapiens, UniProt Q12809)", 3.8),
    ("Cc1ccc(-c2ccc(C(=O)NC(CN)c3ncc(CO)s3)[nH]2)cc1F (stereo in doubt)", "Voltage-gated inwardly rectifying potassium channel KCNH2 (Homo sapiens, UniProt Q12809)", 9.98),
]

---

Tested on: MT2
Assay Name: Cytotoxicity against human MT2 cells incubated for 4 days by XTT assay
Assay type: cell-based
Experimental Parameters: mt2, 96 h, 96 h
Parameter Measured: log10(CC50) (log10 of the value in µM)

# Molecule, log10(CC50)
data = [
    ("CNCC(NC(=O)c1ccc(-c2ccc(Cl)c(F)c2)[nH]1)c1nc(C)c(CO)s1 (stereo in doubt; 42B)", 1.26),
    ("Cc1cc(C(=O)NC(CN)c2nc(C)c(CO)s2)[nH]c1-c1ccc(Cl)cc1 (stereo in doubt; 28B)", 0.61),
    ("CNCC(NC(=O)c1ccc(-c2ccc(Cl)cc2)[nH]1)c1nc(C)c(CO)s1 (stereo in doubt; 41B)", 1.42),
    ("NCC(NC(=O)c1ccc(-c2ccc(Cl)cc2)[nH]1)c1ncc(CO)s1 (stereo in doubt; 81B)", 1.54),
    ("CNCCC(NC(=O)c1ccc(-c2ccc(F)c(Cl)c2)[nH]1)c1nc(C)c(CO)s1 (stereo in doubt; 65B)", 1.38),
    ("Cc1nc(C(CN)NC(=O)c2ccc(-c3ccc(Cl)cc3)n2C)sc1CO (stereo in doubt; 26B)", 1.51),
    ("CNCC(NC(=O)c1ccc(-c2ccc(Cl)c(F)c2)[nH]1)c1ncc(CO)s1 (stereo in doubt; 86B)", 1.26),
    ("NCC(NC(=O)c1ccc(-c2cc(F)c(Cl)c(F)c2)[nH]1)c1ncc(CO)s1 (stereo in doubt)", 1.57),
    ("NCC(NC(=O)c1ccc(-c2ccc(Cl)c(F)c2)[nH]1)c1ncc(CO)s1 (stereo in doubt; 82B)", 1.56),
    ("CNCC(NC(=O)c1ccc(-c2cc(F)c(Cl)c(F)c2)[nH]1)c1ncc(CO)s1 (stereo in doubt; 88B)", 1.08),
    ("Cc1cc(C(=O)NC(CN)c2nc(C)c(CO)s2)[nH]c1-c1ccc(Cl)cc1 (stereo in doubt; 28A)", 1.26),
    ("Cc1nc(C(CCN(C)C)NC(=O)c2ccc(-c3ccc(F)c(Cl)c3)[nH]2)sc1CO (stereo in doubt; 68B)", 1.34),
    ("Cc1cc(-c2ccc(C(=O)NC(CCN(C)C)c3nc(C)c(CO)s3)[nH]2)ccc1F (stereo in doubt; 69B)", 1.37),
    ("Cc1nc(C(CN)NC(=O)c2ccc(-c3ccc(F)c(F)c3)[nH]2)sc1CO (stereo in doubt; 25B)", 1.81),
    ("NCC(NC(=O)c1ccc(-c2cc(F)c(Cl)c(F)c2)[nH]1)c1ncc(CO)s1 (stereo in doubt; 84B)", 1.24),
]

// provenance: ChEMBL document CHEMBL4007461
